Origin of measurements: ChEMBL document CHEMBL3414458

- system.tested: P2X purinoceptor 7 (Homo sapiens)
- Sequence (Q99572 whole entry): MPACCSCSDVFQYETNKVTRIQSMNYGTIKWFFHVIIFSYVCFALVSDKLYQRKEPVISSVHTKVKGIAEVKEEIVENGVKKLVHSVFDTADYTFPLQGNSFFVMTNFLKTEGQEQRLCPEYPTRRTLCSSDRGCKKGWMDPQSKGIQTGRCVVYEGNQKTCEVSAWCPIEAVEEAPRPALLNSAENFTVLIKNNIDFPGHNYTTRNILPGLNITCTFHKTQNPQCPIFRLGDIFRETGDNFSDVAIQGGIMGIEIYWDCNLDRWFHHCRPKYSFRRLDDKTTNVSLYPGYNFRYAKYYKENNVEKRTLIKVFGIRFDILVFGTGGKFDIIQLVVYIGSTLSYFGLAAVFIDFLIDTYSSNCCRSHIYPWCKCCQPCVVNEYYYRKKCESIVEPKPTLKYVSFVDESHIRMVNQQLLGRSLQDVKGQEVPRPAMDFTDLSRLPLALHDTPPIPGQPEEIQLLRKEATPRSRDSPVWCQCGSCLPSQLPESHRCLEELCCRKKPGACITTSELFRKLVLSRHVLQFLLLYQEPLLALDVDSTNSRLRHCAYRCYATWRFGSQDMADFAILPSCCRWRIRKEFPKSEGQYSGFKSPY
- method: Antagonist activity at recombinant human P2X7 receptor expressed in HEK293 cells assessed as inhibition of BzATP-induced intracellular ethidium bromide uptake after 2 hrs by fluorescence assay
- Assay type: cell-based
endpoint: IC50
Answer format: value, then unit.

Okay, here is my list. What is IC50 for each of these?
1. O=C1NC(=O)N(C2CCN(C(=O)c3ccc(Cl)cc3F)CC2)C1Cc1ccc(OS(=O)(=O)c2cccc3cnccc23)cc1 (racemic)
2. O=C1NC(=O)N(C2CCN(C(=O)c3ccc(Cl)c(C(F)(F)F)c3)CC2)C1Cc1ccc(OS(=O)(=O)c2cccc3cnccc23)cc1 (single isomer, unassigned; (-))
3. CC(C)(C)OC(=O)N1CCC(N2C(=O)NC(=O)C2Cc2ccc(OS(=O)(=O)c3cccc4cnccc34)cc2)CC1 (racemic)
4. O=C1NC(=O)N(C2CCN(C(=O)CC3CC4CCC3C4)CC2)C1Cc1ccc(OS(=O)(=O)c2cccc3cnccc23)cc1 (racemic)
5. O=C1NC(=O)N(Cc2cccc3cnccc23)C1Cc1ccc(OS(=O)(=O)c2cccc3cnccc23)cc1 (racemic)
6. O=C1NC(=O)N(C2CCN(C(=O)c3cccc(Cl)c3)CC2)C1Cc1ccc(OS(=O)(=O)c2cccc3cnccc23)cc1 (racemic)
7. O=C1NC(=O)N(C2CCN(C(=O)C34CC5CC(CC(Br)(C5)C3)C4)CC2)C1Cc1ccc(OS(=O)(=O)c2cccc3cnccc23)cc1 (racemic)

OUT:
1. 423 nM
2. 54 nM
3. 355 nM
4. 109 nM
5. 3820 nM
6. 220 nM
7. 30 nM

Okay, here is my list. What is IC50 for each of these?
1. O=C1NC(=O)N(C2CCN(C(=O)CC34CC5CC(CC(C5)C3)C4)CC2)C1Cc1ccc(OS(=O)(=O)c2cccc3cnccc23)cc1 (racemic)
2. O=C1NC(=O)N(C2CCN(C(=O)c3ccc(Cl)c(Cl)c3)CC2)C1Cc1ccc(OS(=O)(=O)c2cccc3cnccc23)cc1 (racemic)
3. CCCN1C(=O)C(Cc2ccc(OS(=O)(=O)c3cccc4cnccc34)cc2)N(C2CCN(C(=O)c3ccc(Cl)c(C(F)(F)F)c3)CC2)C1=O (racemic)

OUT:
84 nM
73 nM
1670 nM

Okay, here is my list. What is IC50 for each of these?
1. O=C1NC(=O)N(C2CCN(C(=O)C34CC5CC(CC(C5)C3)C4)CC2)C1Cc1ccc(OS(=O)(=O)c2cccc3cnccc23)cc1 (racemic)
2. O=C1NC(=O)N(C2CCN(C(=O)c3ccc(F)c(F)c3)CC2)C1Cc1ccc(OS(=O)(=O)c2cccc3cnccc23)cc1 (racemic)
3. O=C1NC(=O)N(C2CCN(C(=O)c3ccccc3)CC2)C1Cc1ccc(OS(=O)(=O)c2cccc3cnccc23)cc1 (racemic)
4. O=C1N[C@@H](Cc2ccc(OS(=O)(=O)c3cccc4cnccc34)cc2)C(=O)N1Cc1cccc2cnccc12
5. O=C1NC(=O)N(C2CCN(C(=O)c3ccc(Cl)cc3)CC2)C1Cc1ccc(OS(=O)(=O)c2cccc3cnccc23)cc1 (racemic)
6. CC(C)N1C(=O)C(Cc2ccc(OS(=O)(=O)c3cccc4cnccc34)cc2)N(C2CCN(C(=O)c3ccc(Cl)c(C(F)(F)F)c3)CC2)C1=O (racemic)

OUT:
1: 23 nM; 2: 217 nM; 3: 574 nM; 4: 12200 nM; 5: 133 nM; 6: 3240 nM

Okay, here is my list. What is IC50 for each of these?
1. O=C1NC(=O)N(C2CCN(CC34CC5CC(CC(C5)C3)C4)CC2)C1Cc1ccc(OS(=O)(=O)c2cccc3cnccc23)cc1 (racemic)
2. CC(C)(C)OC(=O)N1CCC(CN2C(=O)C(Cc3ccc(OS(=O)(=O)c4cccc5cnccc45)cc3)N(Cc3cccc4cnccc34)C2=O)CC1 (racemic)
3. O=C1C(Cc2ccc(OS(=O)(=O)c3cccc4cnccc34)cc2)N(CC2CCN(Cc3ccccc3)CC2)C(=O)N1Cc1cccc2cnccc12 (racemic)
4. COc1ccc(C(=O)N2CCC(N3C(=O)NC(=O)C3Cc3ccc(OS(=O)(=O)c4cccc5cnccc45)cc3)CC2)cc1OC (racemic)

OUT:
["2290 nM", "12000 nM", "8960 nM", "3760 nM"]
